- System: CCRF-CEM
- assay method text: NCI tumour cell line growth inhibition, 48 h
Calls of active or inactive are those of the source. Cut-off read from the data, not from the text of the source: active = GI50 up to about 1.1 µM and inactive = higher.
Entry note: the call must match one of Y = active, N = inactive

Below are worked cases with known answers.
# compound, qualitative label
measured = [
    ("CN(Cc1c2ccccc2cc2ccccc12)S(=O)(=O)c1ccc(-c2c3nc(c(-c4ccc(S(=O)(=O)N(C)Cc5c6ccccc6cc6ccccc56)cc4)c4ccc([nH]4)c(-c4ccc(S(=O)(=O)N(C)Cc5c6ccccc6cc6ccccc56)cc4)c4nc(c(-c5ccc(S(=O)(=O)N(C)Cc6c7ccccc7cc7ccccc67)cc5)c5ccc2[nH]5)C=C4)C=C3)cc1", "N"),
    ("C=C1C2C[C@@H]3O[C@H]4C[C@H]5O[C@@]6(C[C@@H]7O[C@]8(C[C@H](C)[C@@H]9O[C@@H]%10CC(CO)O[C@@H]%10C[C@@H]9O8)C[C@H](C)[C@@H]7O6)C[C@H]5O[C@H]4[C@H](C)[C@H]3OC(=O)C[C@H]3CC[C@@H]4OC5[C@H]6O[C@]7(CC[C@H]8CC(=C)[C@H](CC[C@@H](C[C@H]1C)O2)O8)CC6O[C@@H]5[C@@H](O7)[C@H]4O3 (some centres not stated)", "Y"),
    ("Cc1nc(N)sc1C(=O)/C=C/c1ccc(/C=C/C(=O)c2sc(NC(=O)CCCCCCCCC(=O)Nc3nc(C)c(C(=O)/C=C/c4ccc(/C=C/C(=O)c5sc(N)nc5C)cc4)s3)nc2C)cc1", "N"),
    ("CN(O)C(=O)/C=C/c1ccc(OCc2cccc(Cl)c2)cc1", "N"),
    ("COc1ccccc1OCc1nnc(SCC(=O)O)n1-c1ccccc1", "N"),
]

Kindly consider the entry below.
## Task Just curious, what result did Cc1cc(C)nc(Sc2c([N+](=O)[O-])ncn2C)n1 get here?
## Result N
